- EXPERIMENT NOTES: TG (thermogravimetric analysis)
- Type: physicochemical
- CONDITIONS: weight change on heating
- Source text: A powder X-ray diffraction pattern of 2-[4-[2-(benzimidazol-2-ylthio)ethyl]piperazin-1-yl]-N-[2,4-bis(methylthio)-6-methyl-3-pyridyl]acetamide monohydrochloride 0.9-water adduct is illustrated in FIG. 1, and the results of its TG (thermogravimetric analysis)-DSC (differential scanning calorimetry) measurements are shown in FIG. 2. […]

MOLECULE	TG
CSc1cc(C)nc(SC)c1NC(=O)CN1CCN(CCSc2nc3ccccc3[nH]2)CC1.Cl.O [Monohydrochloride 0.9-water adduct]	No change until
CSc1cc(C)nc(SC)c1NC(=O)CN1CCN(CCSc2nc3ccccc3[nH]2)CC1.O=S(=O)(O)O [Monosulfate]	No change until
CSc1cc(C)nc(SC)c1NC(=O)CN1CCN(CCSc2nc3ccccc3[nH]2)CC1.CSc1cc(C)nc(SC)c1NC(=O)CN1CCN(CCSc2nc3ccccc3[nH]2)CC1.O.O.O.O=S(=O)(O)O.O=S(=O)(O)O.O=S(=O)(O)O.O=S(=O)(O)O [Disulfate 1.5-water adduct]	No change until

* * *

- EXPERIMENT NOTES: Hygroscopicity (weight change on storage at 25° C. and 83% relative humidity)
- Format: physicochemical
- CONDITIONS: weight change after 4 days at 25° C. and 83% relative humidity
VALUE KIND: Hygroscopicity (%)

MOLECULE	U	Hygroscopicity
CSc1cc(C)nc(SC)c1NC(=O)CN1CCN(CCSc2nc3ccccc3[nH]2)CC1.Cl.Cl.Cl.Cl.O.O [Tetrahydrochloride 2-water adduct]	%	10

P. CSc1cc(C)nc(SC)c1NC(=O)CN1CCN(CCSc2nc3ccccc3[nH]2)CC1.CSc1cc(C)nc(SC)c1NC(=O)CN1CCN(CCSc2nc3ccccc3[nH]2)CC1.O.O.O.O=S(=O)(O)O.O=S(=O)(O)O.O=S(=O)(O)O.O=S(=O)(O)O [Disulfate 1.5-water adduct]
Q. CSc1cc(C)nc(SC)c1NC(=O)CN1CCN(CCSc2nc3ccccc3[nH]2)CC1.O=S(=O)(O)O [Monosulfate]
R. CSc1cc(C)nc(SC)c1NC(=O)CN1CCN(CCSc2nc3ccccc3[nH]2)CC1.O=C(O)/C=C\C(=O)O.O=C(O)/C=C\C(=O)O [Dimaleate]
input: Rank entries according to their Hygroscopicity, from the largest number down. List labels; respect the requested ordering.
output: Q, P, R

* * *

- EXPERIMENT NOTES: Solubility of the acid addition salts
VALUE KIND: Solubility (mg/mL)

P. CSc1cc(C)nc(SC)c1NC(=O)CN1CCN(CCSc2nc3ccccc3[nH]2)CC1.O.O.O.O.O=S(=O)(O)O [Monosulfate 4-water adduct]
Q. CSc1cc(C)nc(SC)c1NC(=O)CN1CCN(CCSc2nc3ccccc3[nH]2)CC1.Cl.O [Monohydrochloride 0.9-water adduct]
R. CSc1cc(C)nc(SC)c1NC(=O)CN1CCN(CCSc2nc3ccccc3[nH]2)CC1.O=S(=O)(O)O [Monosulfate]
input: Ranking criterion: Solubility, increasing numeric value. Items: as listed above. List labels; respect the requested ordering.
output: Q, P, R

* * *

- EXPERIMENT NOTES: physchem
VALUE KIND: Solubility (mg/mL)
Enter your answer as a number in mg/mL; do not include the unit.

input: Give its Solubility value. Item: CSc1cc(C)nc(SC)c1NC(=O)CN1CCN(CCSc2nc3ccccc3[nH]2)CC1.O=C(O)/C=C\C(=O)O.O=C(O)/C=C\C(=O)O [Dimaleate]
output: 15
